From: patent US11597727B2

- system-tested: integrin α2β1 (Homo sapiens, UniProt P05556+P17301)
- Sequence (P17301 30-1181): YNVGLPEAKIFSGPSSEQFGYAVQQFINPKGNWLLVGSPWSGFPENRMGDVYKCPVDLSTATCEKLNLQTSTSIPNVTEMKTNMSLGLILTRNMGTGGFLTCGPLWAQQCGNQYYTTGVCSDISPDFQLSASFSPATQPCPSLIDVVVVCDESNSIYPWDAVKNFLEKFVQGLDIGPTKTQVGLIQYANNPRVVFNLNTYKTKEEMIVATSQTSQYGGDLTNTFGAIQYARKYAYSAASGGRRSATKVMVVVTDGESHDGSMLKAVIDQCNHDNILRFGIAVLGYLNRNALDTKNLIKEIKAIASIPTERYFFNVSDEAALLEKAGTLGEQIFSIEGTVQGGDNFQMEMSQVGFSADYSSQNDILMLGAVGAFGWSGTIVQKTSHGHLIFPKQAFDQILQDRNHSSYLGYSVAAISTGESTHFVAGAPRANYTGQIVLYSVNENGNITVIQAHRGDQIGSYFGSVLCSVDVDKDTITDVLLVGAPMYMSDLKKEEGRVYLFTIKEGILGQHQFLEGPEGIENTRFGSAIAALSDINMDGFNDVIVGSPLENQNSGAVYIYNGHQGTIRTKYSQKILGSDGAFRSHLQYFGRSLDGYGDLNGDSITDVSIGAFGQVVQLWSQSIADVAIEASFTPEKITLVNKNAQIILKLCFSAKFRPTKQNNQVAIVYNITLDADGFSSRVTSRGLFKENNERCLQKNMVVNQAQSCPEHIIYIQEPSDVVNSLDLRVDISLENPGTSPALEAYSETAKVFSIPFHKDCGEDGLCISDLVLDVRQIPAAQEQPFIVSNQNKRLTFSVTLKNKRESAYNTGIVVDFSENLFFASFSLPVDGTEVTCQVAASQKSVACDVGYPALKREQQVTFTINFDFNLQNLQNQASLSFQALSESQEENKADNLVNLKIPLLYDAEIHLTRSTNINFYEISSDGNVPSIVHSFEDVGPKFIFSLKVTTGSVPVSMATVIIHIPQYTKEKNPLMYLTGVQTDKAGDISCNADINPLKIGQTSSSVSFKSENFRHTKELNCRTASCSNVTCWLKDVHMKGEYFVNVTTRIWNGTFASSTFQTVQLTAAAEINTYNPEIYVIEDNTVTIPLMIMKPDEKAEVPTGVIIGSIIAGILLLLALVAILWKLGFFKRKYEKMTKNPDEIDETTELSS
- Sequence (P05556 21-798): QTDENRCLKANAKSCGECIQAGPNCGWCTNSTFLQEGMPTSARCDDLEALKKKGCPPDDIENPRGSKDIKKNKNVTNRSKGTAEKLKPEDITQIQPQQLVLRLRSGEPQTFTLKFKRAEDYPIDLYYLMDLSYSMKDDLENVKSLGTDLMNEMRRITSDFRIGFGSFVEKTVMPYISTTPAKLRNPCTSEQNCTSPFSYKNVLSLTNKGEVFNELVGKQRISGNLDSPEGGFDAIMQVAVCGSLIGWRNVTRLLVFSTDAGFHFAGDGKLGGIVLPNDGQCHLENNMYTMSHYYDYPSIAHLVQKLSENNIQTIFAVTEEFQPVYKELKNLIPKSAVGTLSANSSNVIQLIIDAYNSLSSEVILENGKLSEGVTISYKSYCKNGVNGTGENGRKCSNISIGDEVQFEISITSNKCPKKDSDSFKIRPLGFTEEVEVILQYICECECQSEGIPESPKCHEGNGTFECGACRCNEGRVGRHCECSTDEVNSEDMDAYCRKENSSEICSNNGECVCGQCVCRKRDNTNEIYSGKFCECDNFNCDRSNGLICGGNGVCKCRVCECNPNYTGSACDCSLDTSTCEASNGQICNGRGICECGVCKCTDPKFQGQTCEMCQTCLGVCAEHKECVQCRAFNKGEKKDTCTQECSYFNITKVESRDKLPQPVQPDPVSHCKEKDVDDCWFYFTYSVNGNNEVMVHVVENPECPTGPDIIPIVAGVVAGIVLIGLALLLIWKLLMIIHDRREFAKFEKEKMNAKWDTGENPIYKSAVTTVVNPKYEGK
- assay-name: HT 1080 cell adhesion assay on rat tail collagen I
- run-parameters: HT1080 (human fibrosarcoma) cells on rat tail collagen I, absorbance at 595 nm, triplicate; read-out: IC50s from HT 1080 Cell adhesion assay
pIC50: −log10 of the molar value.
reported-property: pIC50

Example compounds with recorded pIC50:
# compound, result
records = [
    ("O=C(NCCc1ccccc1)NC[C@H](NC(=O)c1c(Cl)cccc1Cl)C(=O)O [KZ-1-11]", "< 4.00"),
    ("O=C(NCC1CC12CCCCC2)NC[C@H](NC(=O)c1c(Cl)cccc1Cl)C(=O)O (some centres unmarked) [A2-177]", "4.00 to 5.00"),
    ("O=C(NC[C@H](NC(=O)c1c(Cl)cccc1Cl)C(=O)O)OCc1ccccc1 [A2-72]", "< 4.00"),
]

Consider C[C@H](NC(=O)NC[C@H](NC(=O)c1c(Cl)cccc1Cl)C(=O)O)c1ccccc1 [KZ-1-13] . Its measured pIC50 is < 4.00

Consider CC(NC(=O)NC[C@H](NC(=O)c1c(Cl)cccc1Cl)C(=O)O)C12CC3CC(CC(O)(C3)C1)C2 (some centres unmarked) [A2-152] . Its measured pIC50 is 4.00 to 5.00
